Please go through the items and note down their MIC.
System: Pseudomonas aeruginosa
Assay: Antibacterial activity against Pseudomonas aeruginosa PA22 (PT629) expressing MexXY after 24 hrs by geometric microdilution method
Type: functional
Numbers only, in µg/mL.

N[C@H]1[C@@H](O[C@H]2[C@H](O)[C@@H](OCc3cccc4ccccc34)[C@H](N)C[C@@H]2N)O[C@H](CO)[C@@H](OCc2cccc3ccccc23)[C@@H]1OCc1cccc2ccccc12 : 32

For the next question, use this compound.
The compound identified as CCCCCCCCCO[C@@H]1[C@@H](N)[C@@H](O[C@H]2[C@H](O)[C@@H](OCCCCCCCCC)[C@H](N)C[C@@H]2N)O[C@H](CN)[C@H]1O registered its MIC at 4

###

Test system: Staphylococcus aureus
Assay: Antibacterial activity against vancomycin-resistant Staphylococcus aureus VRS2 after 24 hrs by geometric microdilution method
Assay type: functional
Conditions: VRS2, 24 h
valueKind: log10(MIC) (log10 of the value in µg/mL)
The figures below represent log10 of MIC, where MIC is stated in µg/mL.

Sample records with log10(MIC):
N[C@H]1[C@@H](O[C@H]2[C@H](O)[C@@H](OCc3ccc4ccccc4c3)[C@H](N)C[C@@H]2N)O[C@H](CO)[C@@H](OCc2ccc3ccccc3c2)[C@@H]1OCc1ccc2ccccc2c1 : 2.11
NC[C@@H]1O[C@H](O[C@H]2[C@@H](O)[C@H](O[C@@H]3[C@@H](O)[C@H](N)C[C@H](N)[C@H]3O[C@H]3O[C@H](CN)[C@@H](O)[C@H](O)[C@H]3N)O[C@@H]2CO)[C@H](N)[C@@H](O)[C@@H]1O : 2.11
N[C@H]1[C@@H](O[C@H]2[C@H](O)[C@@H](OCc3cccc4ccccc34)[C@H](N)C[C@@H]2N)O[C@H](CO)[C@@H](OCc2cccc3ccccc23)[C@@H]1OCc1cccc2ccccc12 : 1.51
NC[C@H]1O[C@H](O[C@H]2[C@H](O)[C@@H](OCc3ccc4ccccc4c3)[C@H](N)C[C@@H]2N)[C@H](N)[C@@H](OCc2ccc3ccccc3c2)[C@@H]1O : 1.20
CCCCCCO[C@@H]1[C@@H](N)[C@@H](O[C@H]2[C@H](O)[C@@H](OCCCCCC)[C@H](N)C[C@@H]2N)O[C@H](CN)[C@H]1OCCCCCC : 0.60
NC[C@H]1O[C@H](O[C@H]2[C@H](O)[C@@H](OCCCc3ccc4ccccc4c3)[C@H](N)C[C@@H]2N)[C@H](N)[C@@H](OCCCc2ccc3ccccc3c2)[C@@H]1O : 0.00
CCCCCCCCCO[C@@H]1[C@@H](N)[C@@H](O[C@H]2[C@H](O)[C@@H](OCCCCCCCCC)[C@H](N)C[C@@H]2N)O[C@H](CN)[C@H]1O : 0.30
NC[C@H]1O[C@H](O[C@H]2[C@H](O)[C@@H](OCc3ccc4ccccc4n3)[C@H](N)C[C@@H]2N)[C@H](N)[C@@H](OCc2ccc3ccccc3n2)[C@@H]1OCc1ccc2ccccc2n1 : 1.81
N[C@H]1[C@@H](O[C@H]2[C@H](O)[C@@H](OCc3ccc4ccccc4c3)[C@H](N)C[C@@H]2N)O[C@H](CO)[C@@H](O)[C@@H]1OCc1ccc2ccccc2c1 : 1.20

Read the next record carefully.
The compound listed as NC[C@H]1O[C@H](O[C@H]2[C@H](O)[C@@H](OCc3ccccc3)[C@H](N)C[C@@H]2N)[C@H](N)[C@@H](OCc2ccccc2)[C@@H]1OCc1ccccc1 has a reported log10(MIC) of 1.81
